# TARGET_OF_ASSAY: Methionine aminopeptidase (Staphylococcus aureus (strain MW2), UniProt P0A079)
# Sequence (P0A079 whole entry): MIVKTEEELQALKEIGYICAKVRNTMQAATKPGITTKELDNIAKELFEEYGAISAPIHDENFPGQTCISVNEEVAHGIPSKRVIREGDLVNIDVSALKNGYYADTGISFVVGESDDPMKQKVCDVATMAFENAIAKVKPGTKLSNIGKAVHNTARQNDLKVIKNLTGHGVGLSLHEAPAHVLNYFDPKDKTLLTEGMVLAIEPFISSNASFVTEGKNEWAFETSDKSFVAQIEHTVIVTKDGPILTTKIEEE
# MEASUREMENT_PROTOCOL: MetAP Inhibition Assay
# RECORDED_CONDITIONS: pH 7.5; 22 °C

| SMILES_CODE | RELATION_SYMBOL | IC50 (nM) |
| --- | --- | --- |
| Cn1cnnc1SCc1ccccc1 | > | 100000 |
| CSCC[C@H](N)c1nnc(SCc2ccccc2)[nH]1 | = | 43.7 |
| Nc1n[nH]c(SCc2ccccc2)n1 | = | 599 |
